target: GAL4-mPPARγ (Mus musculus); construct: expressed in transfected cells; host or cells: COS7; test: GAL4-mPPARγ antagonism in competition with 50 nM rosiglitazone, transiently transfected COS7 cells; type: cell-based
MEASURED_QUANTITY: pIC50
In simple prose, pIC50 is minus the logarithm base ten of a concentration in moles per litre.

Ask | Indicate the recorded pIC50 value for this molecule: `O=[N+]([O-])c1cc(C(F)(F)F)c(Cl)c([N+](=O)[O-])c1Nc1ncc(C(F)(F)F)cc1Cl`
Reply | 5.14

###

Target: GAL4-mPPARγ (Mus musculus, UniProt P37238)
Construct: expressed in transfected cells; host or cells: COS7
Sequence (P37238 with tags, fused parts or gaps limits assumed): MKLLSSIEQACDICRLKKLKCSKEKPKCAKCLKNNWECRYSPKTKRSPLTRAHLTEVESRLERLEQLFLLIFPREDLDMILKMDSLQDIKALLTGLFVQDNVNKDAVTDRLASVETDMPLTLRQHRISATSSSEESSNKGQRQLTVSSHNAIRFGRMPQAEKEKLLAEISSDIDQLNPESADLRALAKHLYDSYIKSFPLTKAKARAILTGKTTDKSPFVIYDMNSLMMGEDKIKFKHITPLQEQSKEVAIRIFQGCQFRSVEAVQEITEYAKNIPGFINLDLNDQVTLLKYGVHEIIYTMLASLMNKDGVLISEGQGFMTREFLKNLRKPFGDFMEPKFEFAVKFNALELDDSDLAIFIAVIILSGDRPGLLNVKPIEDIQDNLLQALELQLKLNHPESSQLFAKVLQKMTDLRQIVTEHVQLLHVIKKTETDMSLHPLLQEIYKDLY
Test: GAL4-mPPARγ activation, transient transfection luciferase reporter in COS7 cells
Format: cell-based
Description: pCMX-Gal4, pCMX-Gal4-mPPARγ, and pCMX-Gal4-hRXRα were previously described ([Grün et al. 2006]). Transient transfections were performed in COS7 cells as described ([Chamorro-García et al. 2012]). Briefly, COS7 cells were seeded at 15,000 cells per well in 96-well tissue culture plates in 10% calf bovine serum. […] Figure 1 ToxCast™ Chemical Activity on PPARγ. […] (C) EC50, EC10, IC50, and IC10 values calculated from A and B are reported and compared to commercial assays (see Figure S1). […]
MEASURED_QUANTITY: EC50 (µM)
Express the result in µM but write the number alone.

Ask | Indicate the recorded EC50 value for this molecule: `CC(C)(C)c1ccc(CSc2cnn(C(C)(C)C)c(=O)c2Cl)cc1`
Reply | 2.98

###

molecular target: GAL4-mPPARγ (Mus musculus); construct: expressed in transfected cells; host or cells: COS7; assay: GAL4-mPPARγ activation, transient transfection luciferase reporter in COS7 cells; assay type: cell-based; details: COS7, ligands 24 hr, nonlinear regression variable slope; spirodiclofen constrained at top dose; read-out: PPARγ agonists: EC50, Fig 1A / Fig 4A
MEASURED_QUANTITY: EC50
The reply should consist of the numeric value with the unit placed after it.

Ask | Indicate the recorded EC50 value for this molecule: `CCC(C)(C)C(=O)OC1=C(c2ccc(Cl)cc2Cl)C(=O)OC12CCCCC2`
Reply | 12.8 µM

Ask | Indicate the recorded EC50 value for this molecule: `Fc1ccc(Oc2ccnc3cc(Cl)cc(Cl)c23)cc1`
Reply | 33.4 µM

Ask | Indicate the recorded EC50 value for this molecule: CCC(C)(NC(=O)c1cc(Cl)c(C)c(Cl)c1)C(=O)CCl (stereo not drawn) [Zoxamide]
Reply | 1.31 µM

###

tested on: 3T3-L1 preadipocytes; assay: 3T3-L1 adipogenesis assay (lipid accumulation, adipogenic gene expression); type: cell-based; conditions: 0.02-20 μM, 5 days after MDI induction
MEASURED_QUANTITY: Adipogenesis 3T3-L1 (result in words)

Ask | Indicate the recorded Adipogenesis 3T3-L1 (result in words) value for this molecule: CCOP(=S)(Oc1cnc(C(C)(C)C)nc1)OC(C)C (centres unmarked) [Tebupirimfos]
Reply | Positive

Ask | Indicate the recorded Adipogenesis 3T3-L1 (result in words) value for this molecule: C[Si](Cn1cncn1)(c1ccc(F)cc1)c1ccc(F)cc1 [Flusilazole]
Reply | Positive

Ask | Indicate the recorded Adipogenesis 3T3-L1 (result in words) value for this molecule: CCOCN(C(=O)CCl)c1c(C)cccc1CC [Acetochlor]
Reply | Negative

Ask | Indicate the recorded Adipogenesis 3T3-L1 (result in words) value for this molecule: C=CCC1=C(C)C(OC(=O)C2C(C=C(C)C)C2(C)C)CC1=O (mixture of isomers) [d-cis,trans-Allethrin]
Reply | Negative

Here is another molecule to look at.
Ask | Indicate the recorded Adipogenesis 3T3-L1 (result in words) value for this molecule: CNC(=O)/C=C(\C)OP(=O)(OC)OC [Monocrotophos]
Reply | Negative
